- Test system: A498
- Protocol Text: NCI tumour cell line growth inhibition, 48 h
Activity calls are given as the source filed them. No stated cut-off is given here; in the data, active = GI50 up to about 1.1 µM and inactive = higher.
Entries and their GI50 values follow.

Exercise: Please report the recorded GI50 for `COc1ccc2c3c(c(=O)n(C)c2c1OC)C=CC(C)(C)O3` .
Key: 17.9 µM (inactive)

Exercise: Proceed to `CCCCCCCCC[C@@H]1C[C@H](O)[C@H](Cc2ccccc2)N1C(=O)OC(C)(C)C`
Key: 19.5 µM (inactive)

Exercise: Proceed to COc1cc([C@@H]2c3cc4c(cc3[C@@H](NC(=O)c3cccc(F)c3)C3COC(=O)[C@@H]32)OCO4)cc(OC)c1O (some centres not stated)
Key: 1.27 µM (inactive)

Exercise: Proceed to COC(=O)C1CC(OC(C)=O)C=C2C(=O)CCC21 (configuration not stated)
Key: 37.9 µM (inactive)

Exercise: Proceed to `CCOP(=O)(OCC)/C(C#N)=C/c1cccn1Cc1ccccc1`
Key: 34.3 µM (inactive)

Exercise: Proceed to C[C@]12CC[C@H](O)CC1=CC[C@@H]1C2CC[C@]2(C)NC(=O)C(C#N)CC12 (some centres not stated)
Key: > 100 µM (inactive)

Exercise: Proceed to `C[C@H](CSC(=O)c1ccccc1)C(=O)N1c2ccccc2C[C@H]1C(=O)O`
Key: > 100 µM (inactive)

Exercise: Proceed to Brc1ccc(C2CC(c3cccc4ccccc34)=Nc3ccccc3S2)cc1 (configuration not stated)
Key: > 100 µM (inactive)

Exercise: Proceed to `CN(C)CCNC(=O)c1cc([N+](=O)[O-])ccn1`
Key: > 100 µM (inactive)

Exercise: Proceed to CC1CC(=O)Nc2ccc(Cl)cc2N1C(=O)CN1CCC(CCCCN(C)C)CC1 (configuration not stated)
Key: > 100 µM (inactive)

Exercise: Proceed to `COc1ccc(/C=N/n2c(=O)[nH]c3ccccc3c2=O)cc1`
Key: > 100 µM (inactive)

Exercise: Proceed to `CC(C)(C)OC(=O)NCCCCCCC(=O)Cc1ccccc1`
Key: > 100 µM (inactive)

Exercise: Proceed to `COc1cc(-c2oc3c(OC)c(O)c(OC)c(O)c3c(=O)c2OC)cc(OC)c1OC`
Key: 51.2 µM (inactive)

Exercise: Proceed to Cc1ccc(NC(=O)CC2Sc3ccccc3NC2=O)c(C)c1 (configuration not stated)
Key: 14 µM (inactive)

Exercise: Proceed to `O=C(O)/C=C/c1c[nH]cn1`
Key: > 500 µM (inactive)

Exercise: Proceed to `COc1cc(/C=C2/CCS(=O)(=O)c3ccc(C)cc3C2=O)cc(OC)c1OC`
Key: 5.78 µM (inactive)

Exercise: Proceed to `COc1ccc2c3ccc4c(c3n(C)c2c1)C(=O)c1ccccc1C4=O`
Key: 48.4 µM (inactive)

###

- System: MDA-MB-231
- Protocol Text: NCI tumour cell line growth inhibition, 48 h
The source made the active and inactive calls. Cut-off read from the data, not from the text of the source: active = GI50 up to about 1.1 µM and inactive = higher.
Measure: GI50

// known answers, use as guide
COC(=O)[C@H](Cc1c[nH]c2ccccc12)NC(=O)c1ccccc1I: 29.1 µM (inactive)
OC1(c2ccccc2)CSc2ncnn21 (stereo not given): > 100 µM (inactive)
COC(=O)CN(CC(O)C(NC(C)=O)C(O)C=O)C(=O)OCc1ccccc1 (stereo not given): > 100 µM (inactive)
COc1ccc(/N=N/c2c(-c3c(OC)cc4occc4c3OC)[nH]c(=O)c(C#N)c2C)cc1: > 100 µM (inactive)
CCN1CCC(O)(c2ccc(Oc3ccc(F)cc3)cc2)C(C(=O)c2ccc(Oc3ccc(F)cc3)cc2)C1 (stereo not given): 13.2 µM (inactive)

Exercise: Please report the recorded GI50 for CN(CCC(=O)N1CC(CCl)c2ccc([N+](=O)[O-])cc21)CCC(=O)N1CC(CCl)c2ccc([N+](=O)[O-])cc21 (stereo not given) .
Key: 16.7 µM (inactive)

Exercise: Proceed to `COc1cc(-c2oc3c(OC)c(O)c(OC)c(O)c3c(=O)c2OC)cc(OC)c1OC`
Key: 73.6 µM (inactive)

Exercise: Proceed to `CC1(C)CC(C)(C)C1=NNC(N)=O`
Key: > 100 µM (inactive)

Exercise: Proceed to O=C(NC(Cc1c[nH]cn1)C(=O)N1CCCC1)C1CCCC1 (stereo not given)
Key: > 100 µM (inactive)

Exercise: Proceed to CCOC(=O)C1(Cc2ccccc2)CCN(C(=O)c2ccccc2)C2C1C2(Cl)Cl (stereo not given)
Key: 17.1 µM (inactive)
